Below is a list of entries, each paired with its recorded PBM binding z-score value.
tested on: LXRb:RXRa (NR concentration 270 nM, RXRa partner concentration 90 nM); experiment: PBM binding z-score (relative to random genomic background probes); higher = stronger binding; sequences stand for … in GC…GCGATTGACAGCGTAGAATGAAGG
Keep the answer to the number alone.

Check out these entries, answers already filled in.
query sequence | PBM binding z-score
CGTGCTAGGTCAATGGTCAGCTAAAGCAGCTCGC | 1.37
AGAATGAGGTTATTATGATCAGGGAATTGCGGTC | 1.16
CAGAGTAGGTTATGGGGCATTCAGGCAACGGTGA | 0.833
TAGCCTAGGTCAGATCGGGCCCGTATACGCTATA | 0.916
CCTTACTGGTCAAGGTTATAGCACGGGTGGTACG | 0.767

Next sequence, PBM binding z-score to be filled in.
Using the record for TAGCCTAGGTCATGCGGGCCAGTACAGTGTCGGC , state its measured PBM binding z-score. 1.48

====

Consider the following sequences and their measured PBM binding z-score readings.
system: PPARg:RXRa 90nM:30nM, anti-RXR (NR concentration 90 nM, RXRa partner concentration 30 nM); experiment: PBM binding z-score (relative to random genomic background probes); higher = stronger binding; sequences stand for … in GC…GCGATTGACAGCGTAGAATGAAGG

See these solved cases before continuing.
query sequence | assay target | PBM binding z-score
CGAACTAGGTCATTAACAGGACAGTGAATAGTAA | PPARg:RXRa 90nM:30nM, anti-RXR (NR concentration 90 nM, RXRa partner concentration 30 nM) | 5.45
CCTATTAGTTGACCCTAAGGGCAACCGAAGCTCG | PPARg:RXRa 90nM:30nM, anti-RXR (NR concentration 90 nM, RXRa partner concentration 30 nM) | 2.19
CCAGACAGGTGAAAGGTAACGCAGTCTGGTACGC | PPARg:RXRa 90nM:30nM, anti-RXR (NR concentration 90 nM, RXRa partner concentration 30 nM) | 6.4
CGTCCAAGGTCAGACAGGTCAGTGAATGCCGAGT | PPARg:RXRa 90nM:30nM, anti-RXR (NR concentration 90 nM, RXRa partner concentration 30 nM) | 1.85
AGAATGAGGTTATACGTAGATCACGGAAGAAAGT | PPARg:RXRa 90nM:30nM, anti-RXR (NR concentration 90 nM, RXRa partner concentration 30 nM) | 1.42
CGCCCAAGGTCAATGCTAGGTCAGTGAAAGCATT | PPARg:RXRa 90nM:30nM, anti-RXR (NR concentration 90 nM, RXRa partner concentration 30 nM) | 3.08

Please list PBM binding z-score recorded for the sequence CATACAGGGGCAGCTAGGCCAGAGTAGGGACGGC -0.744

Could you please provide reported PBM binding z-score for TCATATAGGTAATACAGGGGAAAGTCGGCATCTA ? Thanks! 3.25

Answer with reported PBM binding z-score of ACAGACAGGTGAGTGAAGGTAACTCTGCTGGACG 0.019

For the sequence TCGAGTAGGTTACCAATGGGGCAGTCAGCTTTCT , give its measured PBM binding z-score value. 0.984

Tell me PBM binding z-score reported for GCAGACAGGTGAAACGCAGGTAACTCATGGTGGC 0.0978
